# System: ATP;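 further: ATP exposure 15 min at 22 °C before imaging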
# assay remarks: switch fluorescence ratio, 500 uM ATP over buffer (Cy3 cluster intensity, sum of 5 cycles each) (fold (ratio)); higher = stronger signal-on switching upon ATP binding; sequences stand for … in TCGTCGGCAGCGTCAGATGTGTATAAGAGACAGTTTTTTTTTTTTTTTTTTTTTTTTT…TC
# condition notes: aptamer strand: ATP DNA aptamer (quencher-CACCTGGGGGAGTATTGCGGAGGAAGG + anchor), 100 nM annealed; ATP concentration: 500 uM
Attribute: switch fluorescence ratio
Give the value as a plain number.

In the examples that follow, each entry is paired with its recorded switch fluorescence ratio.
biosequence	measure	meas value
TGGATTAAGG	switch fluorescence ratio	1.03
TGGTAATATA	switch fluorescence ratio	1.02
AGTCCTTAGC	switch fluorescence ratio	1
GGGGTCGTCA	switch fluorescence ratio	1.04
AGTATGGGGA	switch fluorescence ratio	0.989
CGTGTTTGTG	switch fluorescence ratio	0.999
ATGTAATAGT	switch fluorescence ratio	1.01
GGTCGTAGGG	switch fluorescence ratio	1.01
TTTTCCAATG	switch fluorescence ratio	1.02
TTCGTATATT	switch fluorescence ratio	1.02

Req: Would you kindly share the measured switch fluorescence ratio for `TCTGGGGGAC` ?
Resp: 1.05

Req: Would you kindly share the measured switch fluorescence ratio for `CGGATGAGGA` ?
Resp: 0.984

Req: Would you kindly share the measured switch fluorescence ratio for `CGTTCAAGTT` ?
Resp: 1

Req: Would you kindly share the measured switch fluorescence ratio for `TTCGAACACG` ?
Resp: 0.994

Req: Would you kindly share the measured switch fluorescence ratio for `GGGGAAGGCC` ?
Resp: 1.01

Req: Would you kindly share the measured switch fluorescence ratio for `AAGGGTCAAA` ?
Resp: 0.985

Req: Would you kindly share the measured switch fluorescence ratio for `GATTTGTTAG` ?
Resp: 0.977

Req: Would you kindly share the measured switch fluorescence ratio for `TGTGGGGGGT` ?
Resp: 0.992

Req: Would you kindly share the measured switch fluorescence ratio for `GGCTCAGGTA` ?
Resp: 1.04

Req: Would you kindly share the measured switch fluorescence ratio for `CTACATGACT` ?
Resp: 1.13

---

Attribute: switch fluorescence ratio
# Test system: ATP;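 further: ATP exposure 15 min at 22 °C before imaging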
# assay remarks: switch fluorescence ratio, 500 uM ATP over buffer (Cy3 cluster intensity, sum of 5 cycles each) (fold (ratio)); higher = stronger signal-on switching upon ATP binding; sequences stand for … in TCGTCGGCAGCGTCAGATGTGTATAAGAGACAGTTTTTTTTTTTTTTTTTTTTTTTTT…TC
# condition notes: aptamer strand: ATP DNA aptamer (quencher-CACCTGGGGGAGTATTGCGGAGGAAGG + anchor), 100 nM annealed; ATP concentration: 500 uM
Give the value as a plain number.

In the examples that follow, each entry is paired with its recorded switch fluorescence ratio.
biosequence	switch fluorescence ratio
AGTGTTGATG	0.975
GGGTAAAGAA	1.01
GAGGAGCTAA	1.01
CGCCCCAGGA	1.85
AAGGGAATTA	0.986

Req: Would you kindly share the measured switch fluorescence ratio for `TTTTGGGTTG` ?
Resp: 1.03

Req: Would you kindly share the measured switch fluorescence ratio for `AGGTTGCGCG` ?
Resp: 1.01

Req: Would you kindly share the measured switch fluorescence ratio for `CCGTTTCGTG` ?
Resp: 0.995

Req: Would you kindly share the measured switch fluorescence ratio for `CGCGTCTCCC` ?
Resp: 3.58

Req: Would you kindly share the measured switch fluorescence ratio for `AACTAGTGGC` ?
Resp: 0.998
